Tested on: Human retinal pigment epithelium (RPE) cultured cells, ARPE-19, pre-loaded with A2E
procedure-summary: A2E (lipofuscin bisretinoid) removal assay, fluorescence plate reader
Type: cell-based
experimental-parameters: 4 mM cyclodextrin, 48 hrs, cells pre-loaded with 5 μM A2E, FIG. 2
observation-type: removal of lipofuscin bisretinoids (A2E) from retinal cells

>  <molecule>
OC[C@H]1O[C@@H]2O[C@H]3[C@H](O)[C@@H](O)[C@@H](O[C@H]4[C@H](O)[C@@H](O)[C@@H](O[C@H]5[C@H](O)[C@@H](O)[C@@H](O[C@H]6[C@H](O)[C@@H](O)[C@@H](O[C@H]7[C@H](O)[C@@H](O)[C@@H](O[C@H]1[C@H](O)[C@H]2O)O[C@@H]7CO)O[C@@H]6CO)O[C@@H]5CO)O[C@@H]4CO)O[C@@H]3CO [α-Cyclodextrin, reference compound]

>  <value-measured>
did not extract A2E

$$$$
>  <molecule>
OC[C@H]1O[C@@H]2O[C@H]3[C@H](O)[C@@H](O)[C@@H](O[C@H]4[C@H](O)[C@@H](O)[C@@H](O[C@H]5[C@H](O)[C@@H](O)[C@@H](O[C@H]6[C@H](O)[C@@H](O)[C@@H](O[C@H]7[C@H](O)[C@@H](O)[C@@H](O[C@H]8[C@H](O)[C@@H](O)[C@@H](O[C@H]9[C@H](O)[C@@H](O)[C@@H](O[C@H]1[C@H](O)[C@H]2O)O[C@@H]9CO)O[C@@H]8CO)O[C@@H]7CO)O[C@@H]6CO)O[C@@H]5CO)O[C@@H]4CO)O[C@@H]3CO [gamma-cyclodextrin, Gamma-Cyclodextrin, reference compound]

>  <value-measured>
did not extract A2E

$$$$
